Test system: MS2 coat protein
assay-text: apparent KD of MS2 coat protein; designed switch direction (-1 OFF switch, 1 ON switch): -1; higher = weaker reporter binding
details: Eterna round: R95; input ligand: none
outcome-measure: apparent KD of MS2 coat protein

CUUCAAUCACCAGAGCUCACACUUAUACCUGCUCUGGUGACAUGAGGAUCACCCAUGUUUUUUGCCCGUCUUAUCUU [Sensor v3, turn-off variant 2 (MOD of Leso v.3)] (puzzle: Sensor v3, turn-off variant 2) = 97.4 nM

Turning now to a further sequence:
input: Param item = AAUAACAAGUAGGAUCCUAACAUGAGGAUCACCCAUGUGCUCGUCUUAUAAAGUACUAUCACGAAAGUGAUAGUACA [Sensor 3, v1 - 53] (puzzle: Sensor v3, turn-off variant 1) ; retrieve measured apparent KD of MS2 coat protein.
output: 83.5 nM

----------
Tested on: MS2 coat protein
assay-text: apparent KD of MS2 coat protein; higher = weaker reporter binding
details: Eterna round: R107; input ligand: none
I would appreciate it if you labelled entries t when apparent KD of MS2 coat protein is 20 nM or higher, otherwise f.

Record excerpt, results attached:
AAUCGUAAGGCGGCCGCCACUACACAUGAGGAUCACCCAUGUCUCGCAGGCUUGCGUUGGGUUAGUAGGACCGGGCCAGUAAUAA [Exclusion - Tryptophan B (Freestyle 15)] = t
GUCUUGGGAUCGGCCGCCACUACAUGAGGAUCACCCAUGUGGACAAAUAGGGUUGUUAAGCUCGGUAGGACCGGGAUUCGGACAU [Oncetexeza] = t
AGACGAGCAAUCAACGGGCGUUUCGUGACGCGAGGACCGGUACGGCCGCCACUCGAGUCUGGACAUGAGGAUCACCCAUGUUAUG [theeternabot_exclusion_MS2_Trp_A_46] = t
UUGGGUUUGUGAAGGAGCGGGAAAGUUAUAUAGUUAAUCCUAACAUGAGGAUCACCCAUGUCCCAGGUAGGUCGCGCGGGUUUGG [12.P] = t

input: I'd appreciate it if you could say whether UGACAUUGCUCAGAUACCAGACAUGAGCAUCAGCCAUGUACCGAGAGUACAUGUUAAAGUGUCCCUUGGCAGCUGAGCAAUGUCU [Mod of Eli's TheoBX5 #AlternateMS2 v4] has apparent KD of MS2 coat protein at least equal to 20 nM.
output: t

input: Quick check, apparent KD of MS2 coat protein >= 20 nM? GGUAGACGGACGGCCGCCACUCACAUGAGGAUCACCCAUGUAUAGUUGGUAAUCUGGGUUCAGGAGAGGACCGGGUCCUUGUCAG [theeternabot_exclusion_MS2_Trp_B_43]
output: f

input: Check if apparent KD of MS2 coat protein >= 20 nM (inclusive). Item: GGACAUGCAGGAAGGAGCGACACGCAGAAACUGCAAAAUCCUCCACACGAGGAUCACCCGUGUCAGGUAGGUCGCCUGCAUGUCG [ArgXB 15 #Zipper #MS2Left #StaticStem #Blueprint]
output: t

input: API: above_or_equal(metric=apparent KD of MS2 coat protein, cutoff=20 nM) for item AAAUAAAUACAUGAGGAUCACCCAUGUGAAGGAGCGGCCGUUAGGCCAGGUAGGUCGCGCAUGAAUAACUCCGUGCAAAAGCACA [MAT - Exclusion Arginine A - Mod of Eli - D18]
output: f

input: Could you please find out whether CACAUGAGGAUCACCCAUGUCUGAACUGAAGGAGCGCUAAACAAGGCAGGUAGGUCGCGGAAUCCCGUGUGCAUAUGCACACGGG [9.Z] has apparent KD of MS2 coat protein that meets 20 nM or exceeds it?
output: f

input: Reported apparent KD of MS2 coat protein reaches at least 20 nM for ACAUGAGGAUCACCCAUGUGCCGUCUUGAUACCAGACCCGAAGUAGUCCCUUGGCAGCAACUACGUGAGGGUCGCCCAUGUGUAG [5kullin] ?
output: f

These entries and their values trace back to the supplement of paper PMC9170038.
